Settings: buffer; pH 7.4; 200.0 µM
PROPERTY LABEL: solubility kinetic

Q) I have this compound here, "O=C(Cn1ccnc1[N+](=O)[O-])NCc1ccccc1" , and I need its recorded solubility kinetic.
A) > 39 µg/mL

Q) I have this compound here, "COC(=O)N1CCCc2cc(C)ccc21" , and I need its recorded solubility kinetic.
A) 15.5 µg/mL

Q) I have this compound here, "CC(C)N(Cc1ccccc1)C(=O)COC(=O)c1cc(S(=O)(=O)N(C)C)ccc1N1CCCC1" , and I need its recorded solubility kinetic.
A) 7.5 µg/mL

Q) I have this compound here, "CNC(=O)COc1ccc(S(=O)(=O)Nc2ccc(C)cc2)cc1" , and I need its recorded solubility kinetic.
A) > 50.2 µg/mL

Q) I have this compound here, "N#CC1(NC(=O)COc2ccc(C(N)=O)cc2)CCCC1" , and I need its recorded solubility kinetic.
A) > 43.1 µg/mL

Q) I have this compound here, "Cc1ccc(C(C)C)c(OCCN2CCc3ccccc3C2)c1.Cl" , and I need its recorded solubility kinetic.
A) < 0.7 µg/mL

Q) I have this compound here, "CC(C)[C@H](NS(=O)(=O)c1ccccc1F)C(=O)NC1CCCCC1" , and I need its recorded solubility kinetic.
A) > 53.5 µg/mL

Q) I have this compound here, "S=C1NCN(C2CCCCC2)CN1c1ccccc1" , and I need its recorded solubility kinetic.
A) > 41.3 µg/mL

Q) I have this compound here, "O=C(O)CC/C(=N/NC(=O)CNC(=O)Cc1ccccc1)c1ccccc1" , and I need its recorded solubility kinetic.
A) > 55.1 µg/mL

Q) I have this compound here, "Cc1cc(C)c2c(CN3CCOCC3)cc(=O)oc2c1C" , and I need its recorded solubility kinetic.
A) 26.5 µg/mL

Q) I have this compound here, "Cc1cc(C)c(C)c(S(=O)(=O)N(C)CCc2ccccn2)c1C" , and I need its recorded solubility kinetic.
A) > 49.9 µg/mL

Q) I have this compound here, "O=C(O)CC1(CC(=O)Nc2ccc(Cl)cc2C(=O)c2ccccc2)CCCC1" , and I need its recorded solubility kinetic.
A) > 60 µg/mL

Q) I have this compound here, CC(=O)c1ccccc1NC(=O)CCN1C(=O)C2CCCCC2C1=O (configuration not stated) , and I need its recorded solubility kinetic.
A) > 51.4 µg/mL

Q) I have this compound here, CC1CN(C(=S)Nc2ccccc2F)CC(C)O1 (configuration not stated) , and I need its recorded solubility kinetic.
A) > 40.3 µg/mL

Q) I have this compound here, "C=CCn1c(O)c(C=NCCCn2ccnc2)c(=O)[nH]c1=O" , and I need its recorded solubility kinetic.
A) > 45.5 µg/mL

Q) I have this compound here, "CC1(C)CC(=O)C=C(Nc2ccc3c(c2)CCC3)C1" , and I need its recorded solubility kinetic.
A) 35.8 µg/mL

Q) I have this compound here, CCC(C)[C@H](NC(=O)NCc1ccc(F)cc1)C(=O)O (some centres not stated) , and I need its recorded solubility kinetic.
A) > 42.3 µg/mL

----------
Details: buffer; pH 7.4; 200.0 µM
PROPERTY LABEL: solubility kinetic

Q) I have this compound here, "O=C(Nc1ccccc1N1CCN(C(=O)c2ccccc2)CC1)c1ccco1" , and I need its recorded solubility kinetic.
A) > 56.3 µg/mL

Q) I have this compound here, "CCN(Cc1ccccc1)C(=O)COC(=O)[C@@H]1CCCN1C(=O)c1cccs1" , and I need its recorded solubility kinetic.
A) > 60.1 µg/mL

Q) I have this compound here, "CCN(CC)C(=O)CSC(Nc1cccc(F)c1)=C(C#N)C#N" , and I need its recorded solubility kinetic.
A) > 49.9 µg/mL

Q) I have this compound here, COc1ccc(C(=O)NC(C)c2ccc(-n3ccnc3)cc2)c(OC)c1 (centres undefined) , and I need its recorded solubility kinetic.
A) > 52.7 µg/mL

Q) I have this compound here, "Cc1nc2ccccc2c(=O)n1-c1ccc(Cl)cc1Cl" , and I need its recorded solubility kinetic.
A) > 45.8 µg/mL

Q) I have this compound here, "CCn1c(=O)cc(C(F)(F)F)[nH]c1=S" , and I need its recorded solubility kinetic.
A) > 33.6 µg/mL

Q) I have this compound here, "O=C(COc1ccc(Cl)cc1)NCCCNC(=O)c1cnccn1" , and I need its recorded solubility kinetic.
A) > 52.3 µg/mL

Q) I have this compound here, C=CCCC(=O)N1CCCC(Cc2cccc(Cl)c2)(C(=O)OCC)C1 (centres undefined) , and I need its recorded solubility kinetic.
A) > 54.6 µg/mL

Q) I have this compound here, "Fc1ccc(-c2nc(-c3cccs3)no2)cc1" , and I need its recorded solubility kinetic.
A) < 0.3 µg/mL

----------
Settings: buffer; pH 7.4; 200.0 µM
PROPERTY LABEL: solubility kinetic

Q) I have this molecule here, "Cc1ccc(NC(=O)COC(=O)c2ccc[n+]([O-])c2)c(Br)c1" , and I need its recorded solubility kinetic.
A) > 54.8 µg/mL

Q) I have this molecule here, N#Cc1ccncc1S(=O)c1ccc(Cl)cc1 (centres undefined) , and I need its recorded solubility kinetic.
A) > 39.4 µg/mL

Q) I have this molecule here, "CCCc1nc2oc3c(=O)[nH]cnc3c2c2c1COC(C)(C)C2" , and I need its recorded solubility kinetic.
A) > 47 µg/mL

Q) I have this molecule here, O=C(CSc1ncnc2sccc12)NC1CCS(=O)(=O)C1 (centres undefined) , and I need its recorded solubility kinetic.
A) > 51.5 µg/mL

----------
Conditions: buffer; pH 7.4; 200.0 µM
Respond with class 1 for solubility kinetic values of 40 µg/mL and above, class 0 for values below.

Q) Given the entry "c1ccc(OCCCn2ccnc2)cc1" , answer whether its solubility kinetic meets or surpasses 40 µg/mL.
A) class 0

Q) Given the entry "COc1ccc(C)cc1NC1=NC(C)(C)CS1" , answer whether its solubility kinetic meets or surpasses 40 µg/mL.
A) class 0

Q) Given the entry CC(O)Cn1c(N2CCCC2)nc2c1c(=O)[nH]c(=O)n2C (stereo not drawn) , answer whether its solubility kinetic meets or surpasses 40 µg/mL.
A) class 1

Q) Given the entry O=C(CN1CCN(Cc2ccccc2F)C1=O)NCC1CCCO1 (stereo not drawn) , answer whether its solubility kinetic meets or surpasses 40 µg/mL.
A) class 1

Q) Given the entry "CC[N+](CC)(CC)CC.[Cl-]" , answer whether its solubility kinetic meets or surpasses 40 µg/mL.
A) class 0

Q) Given the entry "Cc1ccc(S(=O)(=O)c2cc3ccccc3nc2N)cc1" , answer whether its solubility kinetic meets or surpasses 40 µg/mL.
A) class 0

Q) Given the entry "Cc1ccc(C)c(OCCCNCc2ccccc2)c1.O=C(O)C(=O)O" , answer whether its solubility kinetic meets or surpasses 40 µg/mL.
A) class 1

Q) Given the entry "NC(=O)c1ccccc1OCC(=O)Nc1cccnc1Cl" , answer whether its solubility kinetic meets or surpasses 40 µg/mL.
A) class 1

Q) Given the entry "Cc1cc(OC(=O)c2ccc(F)cc2)c([N+](=O)[O-])c(=O)[nH]1" , answer whether its solubility kinetic meets or surpasses 40 µg/mL.
A) class 1

Q) Given the entry "O=C(NCc1ccccc1)NC(=O)c1ccc(Cl)cc1" , answer whether its solubility kinetic meets or surpasses 40 µg/mL.
A) class 0

Q) Given the entry "CCN(C(=O)COC(=O)c1cccnc1)c1cccc2ccccc12" , answer whether its solubility kinetic meets or surpasses 40 µg/mL.
A) class 1

Q) Given the entry "CCN(CC)CCN(C(=O)/C=C/c1cccs1)c1nc2ccc(C)cc2s1.Cl" , answer whether its solubility kinetic meets or surpasses 40 µg/mL.
A) class 0

Q) Given the entry "O=C(O)c1cccc(NC(=O)c2ccccc2NC(=O)c2cccc([N+](=O)[O-])c2)c1" , answer whether its solubility kinetic meets or surpasses 40 µg/mL.
A) class 1

Q) Given the entry "CN1CCN(C(=O)c2ccccc2[N+](=O)[O-])CC1" , answer whether its solubility kinetic meets or surpasses 40 µg/mL.
A) class 0

Q) Given the entry "COc1ccc(C)cc1NC(=O)CCCN1C(=O)CN(C)C1=O" , answer whether its solubility kinetic meets or surpasses 40 µg/mL.
A) class 1

Q) Given the entry "O=C1CCCN1CN(C(=O)c1ccccc1)c1ccccc1" , answer whether its solubility kinetic meets or surpasses 40 µg/mL.
A) class 1

Q) Given the entry "NC(=O)CCn1cnc2ccccc21" , answer whether its solubility kinetic meets or surpasses 40 µg/mL.
A) class 0

Q) Given the entry "c1coc(CSc2ncnc3c2oc2ccccc23)c1" , answer whether its solubility kinetic meets or surpasses 40 µg/mL.
A) class 0

Q) Given the entry Cc1cccc(C(=O)OCC(=O)N2CC(C)OC(C)C2)c1C (stereo not drawn) , answer whether its solubility kinetic meets or surpasses 40 µg/mL.
A) class 1

Q) Given the entry "COc1cc(/C=C(\C#N)C(=O)Nc2ccccn2)ccc1O" , answer whether its solubility kinetic meets or surpasses 40 µg/mL.
A) class 0

Q) Given the entry "O=C(COC(=O)Cc1ccccc1)NCc1ccc2c(c1)OCO2" , answer whether its solubility kinetic meets or surpasses 40 µg/mL.
A) class 1

Q) Given the entry "COc1ccc(N2C(=O)CC(C)(C)CC2=O)cc1OC" , answer whether its solubility kinetic meets or surpasses 40 µg/mL.
A) class 1

Q) Given the entry "Cc1ccc(NC(=O)CNC(=O)c2ccc3c(c2)OCO3)nc1" , answer whether its solubility kinetic meets or surpasses 40 µg/mL.
A) class 0

Q) Given the entry "O=C(Nc1ccccc1)c1ccc(OC(=O)c2ccccc2)cc1" , answer whether its solubility kinetic meets or surpasses 40 µg/mL.
A) class 0

Q) Given the entry COC1c2ccccc2C(=O)N1CCc1ccc(Cl)cc1 (stereo not drawn) , answer whether its solubility kinetic meets or surpasses 40 µg/mL.
A) class 1

Q) Given the entry Cc1nc2ccccc2c2oc(C(=O)N3CCCC(C)C3)cc12 (stereo not drawn) , answer whether its solubility kinetic meets or surpasses 40 µg/mL.
A) class 1

Q) Given the entry "O=C(COC(=O)c1cccc(Cl)c1)Nc1ccc2[nH]c(=O)[nH]c2c1" , answer whether its solubility kinetic meets or surpasses 40 µg/mL.
A) class 0
